molecular target: GABA A receptor α1β2γ2S (Rattus norvegicus, UniProt P18508+P62813+P63138); test: two-microelectrode voltage clamp, Xenopus oocytes, potentiation of GABA current
Sequence (P62813 28-455): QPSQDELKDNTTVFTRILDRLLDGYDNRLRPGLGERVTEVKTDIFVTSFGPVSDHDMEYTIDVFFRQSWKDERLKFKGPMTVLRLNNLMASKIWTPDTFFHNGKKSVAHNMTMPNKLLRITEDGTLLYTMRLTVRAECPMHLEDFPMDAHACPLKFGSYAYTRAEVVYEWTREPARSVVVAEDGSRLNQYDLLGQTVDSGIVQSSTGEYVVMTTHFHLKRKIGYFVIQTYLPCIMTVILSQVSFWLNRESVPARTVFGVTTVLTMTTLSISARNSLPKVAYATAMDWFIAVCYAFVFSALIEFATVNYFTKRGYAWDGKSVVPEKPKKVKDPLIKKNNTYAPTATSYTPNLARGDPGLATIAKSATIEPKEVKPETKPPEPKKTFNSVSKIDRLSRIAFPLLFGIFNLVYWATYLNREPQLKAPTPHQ
Sequence (P63138 26-474): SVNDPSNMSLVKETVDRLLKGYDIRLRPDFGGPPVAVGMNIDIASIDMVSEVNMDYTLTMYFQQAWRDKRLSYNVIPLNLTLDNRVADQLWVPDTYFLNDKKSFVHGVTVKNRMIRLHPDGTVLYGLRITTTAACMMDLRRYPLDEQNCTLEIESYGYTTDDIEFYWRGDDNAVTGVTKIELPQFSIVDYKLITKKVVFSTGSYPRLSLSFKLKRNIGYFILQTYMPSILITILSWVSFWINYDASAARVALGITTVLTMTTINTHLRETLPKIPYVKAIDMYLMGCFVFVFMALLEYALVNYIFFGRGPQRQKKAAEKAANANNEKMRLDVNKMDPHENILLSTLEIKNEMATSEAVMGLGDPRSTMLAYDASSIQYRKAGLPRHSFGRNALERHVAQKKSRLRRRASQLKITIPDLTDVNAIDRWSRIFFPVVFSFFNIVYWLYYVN
Sequence (P18508 39-466): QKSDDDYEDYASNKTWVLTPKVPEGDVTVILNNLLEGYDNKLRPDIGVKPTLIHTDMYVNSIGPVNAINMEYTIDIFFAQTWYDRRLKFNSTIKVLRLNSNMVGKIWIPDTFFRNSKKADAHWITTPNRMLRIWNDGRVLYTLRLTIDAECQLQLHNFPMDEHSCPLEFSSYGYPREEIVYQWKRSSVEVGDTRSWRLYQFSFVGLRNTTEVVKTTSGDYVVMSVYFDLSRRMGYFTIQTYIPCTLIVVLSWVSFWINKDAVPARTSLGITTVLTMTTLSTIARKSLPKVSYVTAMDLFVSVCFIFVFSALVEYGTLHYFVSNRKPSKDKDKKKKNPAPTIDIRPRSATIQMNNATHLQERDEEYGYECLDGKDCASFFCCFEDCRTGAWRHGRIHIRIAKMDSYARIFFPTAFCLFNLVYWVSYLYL
Classify: Y when EC50 is strictly less than 70 µM; N when EC50 is not.

[[record]]
molecule = "CC1(C)CCC[C@]1(C)C1=CC=C(C(=O)O)CC1 [compound 12, (−)-5,6-dihydrocuparenic acid]"
assigned_category = "N"

[[record]]
molecule = "COc1cc(C[C@H](C)[C@H](C)Cc2ccc3c(c2)OCO3)ccc1O"
assigned_category = "Y"

[[record]]
molecule = "COc1cc(C[C@@H](C)[C@@H](C)Cc2ccc(O)c(OC)c2)ccc1O [compound 5, dihydroguaiaretic acid]"
assigned_category = "N"

[[record]]
molecule = "COc1cc(C[C@H](C)[C@H](C)Cc2ccc(OC)c(OC)c2)ccc1O [compound 8, mono-methyl dihydroguaiaretic acid]"
assigned_category = "Y"

